protocolNotes: Selectivity index, ratio of CC50 for African green monkey Vero cells to EC50 for Ebolavirus
Assay type: toxicity
conditionLabel: read-out: Ratio CC50/EC50
quantityName: selectivity ratio

Request: Quick check: selectivity ratio of `Nc1cccc2c1ncn2[C@@H]1C(F)=C(CO)[C@@H](O)[C@H]1O` ?
Result: > 347

###

Test system: Ebolavirus
protocolNotes: Antiviral activity against Ebolavirus subtype Zaire infected in African green monkey Vero E6 cells
Type: functional, Ebola virus - Zaire (1995)
conditionLabel: Orthoebolavirus, Vero C1008
Could you please report measured pEC50 for the items listed next?
Note: pEC50 values are expressed as the negative base-10 logarithm of concentration in M.

Request: Quick check: pEC50 of `Nc1ccnc2c1ncn2[C@@H]1C=C(CO)[C@@H](O)[C@H]1O` ?
Result: 5.40

Request: Quick check: pEC50 of `Nc1cccc2c1ncn2[C@@H]1C=C(CO)[C@@H](O)[C@H]1O` ?
Result: 5.70

###

protocolNotes: Cytotoxicity against African green monkey Vero 76 cells assessed as reduction in cell viability
Assay type: cell-based
conditionLabel: chlorocebus sabaeus
quantityName: CC50 (µM)
Respond numerically; units are µM and should not be typed.

Request: Quick check: CC50 of `Nc1cccc2c1ncn2[C@@H]1C(F)=C(CO)[C@@H](O)[C@H]1O` ?
Result: 115

###

protocolNotes: Cytotoxicity against African green monkey Vero E6 cells assessed as reduction in cell viability
Assay type: cell-based
conditionLabel: chlorocebus sabaeus, Vero E6 cells (Vero C1008)
quantityName: CC50 (µM)
Respond numerically; units are µM and should not be typed.

Request: Quick check: CC50 of `Nc1ccnc2c1ncn2[C@@H]1C=C(CO)[C@@H](O)[C@H]1O` ?
Result: 60

###

protocolNotes: Cytotoxicity against MDCK cells assessed as reduction in cell viability
Type: cell-based, Canis lupus familiaris
conditionLabel: dog
quantityName: CC50 (µM)
Respond numerically; units are µM and should not be typed.

Request: Quick check: CC50 of `Nc1cccc2c1ncn2[C@@H]1C(F)=C(CO)[C@@H](O)[C@H]1O` ?
Result: 133

###

protocolNotes: Selectivity index, ratio of CC50 for African green monkey Vero 76 cells to EC50 for measles virus
Type: toxicity
conditionLabel: read-out: Ratio CC50/EC50
quantityName: selectivity ratio

Request: Quick check: selectivity ratio of `Nc1cccc2c1ncn2[C@@H]1C(F)=C(CO)[C@@H](O)[C@H]1O` ?
Result: > 320

###

protocolNotes: Cytotoxicity against African green monkey Vero cells assessed as reduction in cell viability
Type: cell-based
conditionLabel: chlorocebus sabaeus
quantityName: CC50

Request: Quick check: CC50 of `Nc1cccc2c1ncn2[C@@H]1C(F)=C(CO)[C@@H](O)[C@H]1O` ?
Result: 125 to 360 µM

###

protocolNotes: Selectivity index, ratio of CC50 for African green monkey Vero cells to EC50 for Pichinde virus
Type: toxicity
conditionLabel: read-out: Ratio CC50/EC50
quantityName: selectivity ratio

Request: Quick check: selectivity ratio of `Nc1cccc2c1ncn2[C@@H]1C(F)=C(CO)[C@@H](O)[C@H]1O` ?
Result: > 6.3

These measurements were taken from ChEMBL document CHEMBL4257578.
